Biological target: recombinant human 11β-HSD1 (Homo sapiens, UniProt P28845)
Sequence (P28845 whole entry): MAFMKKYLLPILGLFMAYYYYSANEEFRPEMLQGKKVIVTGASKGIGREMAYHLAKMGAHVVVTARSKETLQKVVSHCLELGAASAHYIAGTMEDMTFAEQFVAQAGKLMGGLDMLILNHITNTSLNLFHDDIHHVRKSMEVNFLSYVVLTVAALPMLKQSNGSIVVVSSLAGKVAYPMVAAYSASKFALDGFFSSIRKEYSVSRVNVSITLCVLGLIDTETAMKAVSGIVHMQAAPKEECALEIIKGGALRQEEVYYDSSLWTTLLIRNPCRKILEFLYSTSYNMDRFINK
Experiment: Enzyme activity assay on human 11β-HSD1 (HTRF cortisol)
Conditions: recombinant human 11β-HSD1, 5 μM cortisone, 2 hours at 37° C.
// IC50 lookup, one value per entry
Enter your answer as a number in nM; do not include the unit.

Below, each entry is followed by its recorded IC50 result.
[
  {
    "STRUCTURE_NOTATION": "Cc1noc(C(=O)NC23CC4CC(CC(C4)C2)C3)c1Sc1ccccc1",
    "TEST_TARGET": "recombinant human 11β-HSD1 (Homo sapiens, UniProt P28845)",
    "IC50 [nM]": 84
  },
  {
    "STRUCTURE_NOTATION": "Cc1noc(C(=O)NC23CC4CC(CC(C4)C2)C3)c1SC1CCCCC1",
    "TEST_TARGET": "recombinant human 11β-HSD1 (Homo sapiens, UniProt P28845)",
    "IC50 [nM]": 80
  },
  {
    "STRUCTURE_NOTATION": "Cc1noc(C(=O)c2ccccc2)c1SC1CCCCC1",
    "TEST_TARGET": "recombinant human 11β-HSD1 (Homo sapiens, UniProt P28845)",
    "IC50 [nM]": 16
  },
  {
    "STRUCTURE_NOTATION": "COc1noc(C(=O)c2ccccc2)c1S(=O)(=O)c1ccccc1",
    "TEST_TARGET": "recombinant human 11β-HSD1 (Homo sapiens, UniProt P28845)",
    "IC50 [nM]": 93
  }
]

Note: attention shifts to another entry.
Note down IC50 recorded for Cc1noc(C(=O)NC23CC4CC(CC(C4)C2)C3)c1SC1CCCCCC1
15

----------
Molecular target: recombinant mouse 11β-HSD1 (Mus musculus)
Experiment: Enzyme activity assay on mouse 11β-HSD1 (HTRF corticosterone)
Conditions: recombinant mouse 11β-HSD1, 11-dehydrocorticosterone substrate, 2 hours at 37° C.
QUANTITY_KIND: pIC50
Scale: negative log10 of molar concentration, which is what pIC50 denotes.

Note down pIC50 recorded for Cc1noc(C(=O)NC23CC4CC(CC(C4)C2)C3)c1SC1CCCCC1
5.22

Note down pIC50 recorded for Cc1noc(C(=O)NC23CC4CC(CC(C4)C2)C3)c1SC1CCCCCC1
4.68

----------
// IC50 lookup, one value per entry
Target: recombinant mouse 11β-HSD1 (Mus musculus, UniProt P50172)
Sequence (P50172 whole entry): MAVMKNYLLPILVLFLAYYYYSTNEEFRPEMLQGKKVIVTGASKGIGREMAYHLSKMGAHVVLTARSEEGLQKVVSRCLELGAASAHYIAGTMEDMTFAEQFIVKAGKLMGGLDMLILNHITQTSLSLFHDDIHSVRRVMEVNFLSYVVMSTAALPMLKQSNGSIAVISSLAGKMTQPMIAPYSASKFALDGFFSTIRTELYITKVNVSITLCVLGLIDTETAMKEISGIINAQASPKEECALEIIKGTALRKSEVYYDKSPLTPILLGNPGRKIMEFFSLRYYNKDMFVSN
Test: Enzyme activity assay on mouse 11β-HSD1 (HTRF corticosterone)
Details: recombinant mouse 11β-HSD1, 11-dehydrocorticosterone substrate, 2 hours at 37° C.
Enter your answer as a number in µM; do not include the unit.

Below, each entry is followed by its recorded IC50 result.
[
  {
    "MOLECULE": "COc1noc(C(=O)c2ccccc2)c1S(=O)(=O)c1ccccc1 [Compound A-20]",
    "MEASUREMENT_UNIT": "µM",
    "RESULT_VALUE": 5.9
  },
  {
    "MOLECULE": "Cc1noc(C(=O)NC23CC4CC(CC(C4)C2)C3)c1Sc1ccccc1 [Compound A-1]",
    "MEASUREMENT_UNIT": "µM",
    "RESULT_VALUE": 21
  }
]

Note: attention shifts to another entry.
Note down IC50 recorded for Cc1noc(C(=O)c2ccccc2)c1SC1CCCCC1 [Compound A-15]
11.6
